System: PCSK9
Experiment: PCSK9 lowering in sandwich culture human hepatocytes (SCHH)
Type: cell-based
Details: maximum response versus vehicle; at 6 h at 30 uM
Method: Test compound in-vitro pharmacokinetic and pharmacodynamic relationships were measured in sandwich culture primary cryopreserved human hepatocytes. Within these studies SCHH cells (BD Biosciences IVT) were thawed at 37° C. then placed on ice, after which the cells were added to pre-warmed (37° C.) In VitroGRO-HT media and centrifuged at 50×g for 3 min. The cell pellet was re-suspended to 0.8×10^6 cells/mL in InVitroGRO-CP plating medium and cell viability determined by trypan blue exclusion. […]
The entries below are paired with their reported Sandwich Culture Hepatocyte (SCHH) PCSK9 Lowering.
measureName: Sandwich Culture Hepatocyte (SCHH) PCSK9 Lowering (% at 6 h at 30 uM)

[[record]]
compound = "CCC(=O)OC(C)n1nnc(-c2c(-c3ccc(C(=O)N(c4ncccc4C)[C@@H]4CCCNC4)cc3)cnn2C)n1 (single isomer, unassigned) [Example 45]"
result = 8

[[record]]
compound = "CCOC(=O)OC(C(C)C)n1nnc(-c2c(-c3ccc(C(=O)N(c4ncccc4C)[C@@H]4CCCNC4)cc3)cnn2C)n1 (single isomer, unassigned) [Example 35]"
result = 28

[[record]]
compound = "CCC(=O)OC(C(C)C)n1nnc(-c2c(-c3ccc(C(=O)N(c4ncccc4C)[C@@H]4CCCNC4)cc3)cnn2C)n1 (single isomer, unassigned) [Example 49]"
result = 0

[[record]]
compound = "CCC(=O)OC(C)n1nnc(-c2c(-c3ccc(C(=O)N(c4ncccc4C)[C@@H]4CCCNC4)cc3)cnn2C)n1 (single isomer, unassigned) [Example 44]"
result = 12

[[record]]
compound = "Cc1cccnc1N(C(=O)c1ccc(-c2cnn(C)c2-c2nnn(C(OC(=O)C(C)C)C(C)C)n2)cc1)[C@@H]1CCCNC1 (single isomer, unassigned) [Example 55]"
result = 40

[[record]]
compound = "CCOC(=O)OC(C(C)C)n1nnc(-c2c(-c3ccc(C(=O)N(c4ncccc4C)[C@@H]4CCCNC4)cc3)cnn2C)n1 (single isomer, unassigned) [Example 34]"
result = 20

[[record]]
compound = "CCOC(=O)OC(C)n1nnnc1-c1c(-c2ccc(C(=O)N(c3ncccc3C)[C@@H]3CCCNC3)cc2)cnn1C (some centres unmarked)"
result = 57

[[record]]
compound = "CCC(OC(=O)OC(C)C)n1nnc(-c2c(-c3ccc(C(=O)N(c4ncccc4C)[C@@H]4CCCNC4)cc3)cnn2C)n1 (single isomer, unassigned) [Example 41]"
result = 35

[[record]]
compound = "Cc1cccnc1N(C(=O)c1ccc(-c2cnn(C)c2-c2nnn(C(C)OC(=O)OC(C)C)n2)cc1)[C@@H]1CCCNC1 (single isomer, unassigned) [Example 38]"
result = 3

[[record]]
compound = "CCC(=O)OC(CC)n1nnc(-c2c(-c3ccc(C(=O)N(c4ncccc4C)[C@@H]4CCCNC4)cc3)cnn2C)n1 (single isomer, unassigned)"
result = 12

[[record]]
compound = "Cc1cccnc1N(C(=O)c1ccc(-c2cnn(C)c2-c2nnn(C(OC(=O)OC(C)C)C(C)C)n2)cc1)[C@@H]1CCCNC1 (single isomer, unassigned) [Example 43]"
result = 21


* * *

tested on: PCSK9; test: PCSK9 lowering in sandwich culture human hepatocytes (SCHH); assay type: cell-based; conditions: maximum response versus vehicle; at 8 h at 30 μM
measureName: Sandwich Culture Hepatocyte (SCHH) PCSK9 Lowering (% at 8 h at 30 μM)

[[record]]
compound = "COC(=O)c1c(-c2ccc(C(=O)N(c3ncccc3Cl)[C@@H]3CCCNC3)cc2)cnn1C"
measurementunit = "% at 8 h at 30 μM"
result = 87

[[record]]
compound = "CCOC(=O)c1c(-c2ccc(C(=O)N(c3ncccc3Cl)[C@@H]3CCCNC3)cc2)cnn1C"
measurementunit = "% at 8 h at 30 μM"
result = 80

[[record]]
compound = "CCOC(=O)O[C@H](C)OC(=O)c1c(-c2ccc(C(=O)N(c3ncccc3Cl)[C@@H]3CCCNC3)cc2)cnn1C [Example 15b]"
measurementunit = "% at 8 h at 30 μM"
result = 58

[[record]]
compound = "Cc1cccnc1N(C(=O)c1ccc(-c2cnn3cccnc23)cc1)[C@@H]1CCCNC1"
measurementunit = "% at 8 h at 30 μM"
result = 74

[[record]]
compound = "CCOC(=O)O[C@@H](C)OC(=O)c1c(-c2ccc(C(=O)N(c3ncccc3Cl)[C@@H]3CCCNC3)cc2)cnn1C [Example 15a]"
measurementunit = "% at 8 h at 30 μM"
result = 72

[[record]]
compound = "CCOC(=O)OC(C)OC(=O)c1c(-c2ccc(C(=O)N(c3ncccc3Cl)[C@@H]3CCCNC3)cc2)cnn1C (stereo partly drawn)"
measurementunit = "% at 8 h at 30 μM"
result = 70

[[record]]
compound = "CCOC(=O)OC(C)OC(=O)c1c(-c2ccc(C(=O)N(c3nccc4ccn(C)c34)[C@@H]3CCCNC3)cc2)cnn1C (stereo partly drawn)"
measurementunit = "% at 8 h at 30 μM"
result = 54

[[record]]
compound = "Cn1ncc(-c2ccc(C(=O)N(c3nccc4ccn(C)c34)[C@@H]3CCCNC3)cc2)c1C(=O)O"
measurementunit = "% at 8 h at 30 μM"
result = 36

[[record]]
compound = "O=C(c1ccc(-n2nnc3cccnc32)cc1)N(c1ncccc1Cl)[C@@H]1CCCNC1"
measurementunit = "% at 8 h at 30 μM"
result = 87

[[record]]
compound = "COC(=O)c1c(-c2ccc(C(=O)N(c3ncccc3C)[C@@H]3CCCNC3)cc2)cnn1C"
measurementunit = "% at 8 h at 30 μM"
result = 83

